# assayed-system: Mitogen-activated protein kinase 8 (Homo sapiens, UniProt P45983)
# Sequence (P45983 whole entry): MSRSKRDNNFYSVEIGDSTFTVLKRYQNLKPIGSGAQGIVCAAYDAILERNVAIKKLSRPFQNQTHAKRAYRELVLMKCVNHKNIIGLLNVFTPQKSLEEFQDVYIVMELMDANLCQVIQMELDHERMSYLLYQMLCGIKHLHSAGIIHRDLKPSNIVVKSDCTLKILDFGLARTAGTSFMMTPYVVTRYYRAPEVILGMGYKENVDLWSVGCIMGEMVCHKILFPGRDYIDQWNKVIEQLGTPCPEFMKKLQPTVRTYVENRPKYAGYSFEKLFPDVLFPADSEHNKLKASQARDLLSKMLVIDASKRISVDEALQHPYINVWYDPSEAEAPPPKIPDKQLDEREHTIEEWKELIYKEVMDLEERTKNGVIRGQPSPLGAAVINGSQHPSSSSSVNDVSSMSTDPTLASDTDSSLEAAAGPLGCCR
# protocol-details: Inhibition of JNK1
result-type: pIC50
Please treat pIC50 as minus the base-10 logarithm of the molar concentration.

Reference set, count: 3
chem_smiles=CC(C)[C@H](CO)Nc1nc(C(=O)NCc2ccc(S(C)(=O)=O)cc2)cc(N)c1C#N assayed_system="Mitogen-activated protein kinase 8 (Homo sapiens, UniProt P45983)" recorded_value=5.82
chem_smiles=C[C@@H](CO)Nc1nc(C(=O)NCc2ccc(S(C)(=O)=O)cc2)cc(N)c1C#N assayed_system="Mitogen-activated protein kinase 8 (Homo sapiens, UniProt P45983)" recorded_value=6.75
chem_smiles=C[C@@H](CO)Oc1nc(C(=O)NCc2ccc(S(C)(=O)=O)cc2)cc(N)c1C#N assayed_system="Mitogen-activated protein kinase 8 (Homo sapiens, UniProt P45983)" recorded_value=7.66

Now for another entry.
What measured pIC50 is associated with `CS(=O)(=O)c1ccc(CNC(=O)c2cc(N)c(C#N)c(OCCC(=O)O)n2)cc1` on Mitogen-activated protein kinase 8 (Homo sapiens, UniProt P45983)?
5.79

Reference for the values: ChEMBL document CHEMBL1149794
